- System: E. coli 7MP
- ASSAY_NAME: Quantitative drug diffusion assay (disc, zone of inhibition, CLSI)
- Assay type: cell-based
- Design: key: R: Resistant; I: Intermediate; S: Sensitive (Interpretation as per CLSI recommendations, 2010)
- ASSAY_SETUP: Table 5, ESBL inhibitor 0 mcg
PARAMETER: Interpretation of zone as per CLSI recommendations

{"MOLECULE": "CC1(C)S[C@@H]2[C@H](NC(=O)[C@H](C(=O)O)c3ccsc3)C(=O)N2[C@H]1C(=O)O [Ticarcillin]", "OBS_VALUE": "(R)"}
{"MOLECULE": "CCN1CCN(C(=O)N[C@@H](C(=O)N[C@@H]2C(=O)N3[C@@H]2SC(C)(C)[C@@H]3C(=O)O)c2ccccc2)C(=O)C1=O [Piperacillin]", "OBS_VALUE": "(R)"}
{"MOLECULE": "CO/N=C(\\C(=O)N[C@@H]1C(=O)N2C(C(=O)[O-])=C(C[N+]3(C)CCCC3)CS[C@H]12)c1csc(N)n1 [Cefepime]", "OBS_VALUE": "(I)"}
{"MOLECULE": "CC1(C)S[C@@H]2[C@H](NC(=O)[C@H](N)c3ccccc3)C(=O)N2[C@H]1C(=O)O [Ampicillin]", "OBS_VALUE": "(R)"}
{"MOLECULE": "CC1(C)S[C@@H]2[C@H](NC(=O)[C@H](N)c3ccc(O)cc3)C(=O)N2[C@H]1C(=O)O [Amoxicillin]", "OBS_VALUE": "(R)"}
